Entry source: patent US8871753B2

biological target: human JAK2 (a.a. 828-1132) (Homo sapiens, UniProt O60674); construct: JAK2 (a.a. 828-1132); His tag (N); made in house; host or cells: insect cells (baculovirus); experiment: In vitro JAK kinase assay (HTRF, phosphorylation of a biotinylated peptide), JAK2; assay type: biochemical; settings: Table D1
Sequence (O60674 828-1132): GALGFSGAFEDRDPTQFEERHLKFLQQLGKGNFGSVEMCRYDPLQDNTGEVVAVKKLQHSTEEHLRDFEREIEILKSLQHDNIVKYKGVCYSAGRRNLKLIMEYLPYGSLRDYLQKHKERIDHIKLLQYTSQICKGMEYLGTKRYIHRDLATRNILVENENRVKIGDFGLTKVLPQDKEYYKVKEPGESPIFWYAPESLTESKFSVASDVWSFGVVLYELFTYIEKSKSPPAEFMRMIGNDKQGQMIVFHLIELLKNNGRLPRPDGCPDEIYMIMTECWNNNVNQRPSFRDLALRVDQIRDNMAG
pIC50: −log10 of the molar value. Where a name gives a salt, the structure may show the parent alone.
Measured parameter: pIC50

{"columns": ["Molecule", "Measured parameter", "Censoring operator", "Result"],
 "data": [
  ["Clc1cnc2nc1Nc1ccc(NCCC3CCNCC3)c(c1)CCc1cncc(c1)N2 [Example D216, (trifluoroacetate)]", "pIC50", "=", 6.56],
  ["Cc1cc(C(=O)Nc2cc3cc(c2)OCCSc2cccc(c2)Nc2nc(ncc2Cl)N3)no1 [Example D58, trifluoroacetate]", "pIC50", "=", 8.89],
  ["O=C(c1ccc(F)cc1F)N1CCC(CCNc2ccc3cc2CCc2cncc(c2)Nc2ncc(Cl)c(n2)N3)CC1 [Example D220, tris(trifluoroacetate)]", "pIC50", "=", 7.40],
  ["COCC(=O)N1CCN(C(=O)COc2ccc3cc2CCc2cncc(c2)Nc2ncc(Cl)c(n2)N3)CC1 [Example D262, bis(trifluoroacetate)]", "pIC50", "<", 6.40],
  ["O=C(C[C@@H]1CCN(c2nc3ccccc3s2)C1)Nc1ccc2cc1CCc1cncc(c1)Nc1ncc(Cl)c(n1)N2 [Example D137, tris(trifluoroacetate)]", "pIC50", "=", 7.82],
  ["O=C(Cn1c(=O)oc2c3cc(cc21)Nc1nc(ncc1Cl)Nc1cccc(c1)CC3)N1CCOCC1 [Example D187, trifluoroacetate]", "pIC50", "=", 6.73],
  ["O=C(C[C@@H]1CCN(C(=O)c2ccno2)C1)Nc1ccc2cc1CCc1cncc(c1)Nc1ncc(Cl)c(n1)N2 [Example D120, bis(trifluoroacetate)]", "pIC50", "=", 6.40],
  ["Cn1ccc(C(=O)N2CC[C@@H](CC(=O)Nc3ccc4cc3CCc3cncc(c3)Nc3ncc(Cl)c(n3)N4)C2)n1 [Example D121, bis(trifluoroacetate)]", "pIC50", "=", 6.26],
  ["O=C(NC1CCCC1)N1CCN(c2cc(-c3cc4cc(c3)Nc3ncc(Cl)c(n3)Nc3cccc(c3)OCC4)ccn2)CC1 [Example D46, bis(trifluoroacetate)]", "pIC50", "=", 9.05],
  ["N#Cc1ccc(NC(=O)N2CCC(CCOc3ccc4cc3CCc3cncc(c3)Nc3ncc(Cl)c(n3)N4)CC2)cc1 [Example D174, bis(trifluoroacetate)]", "pIC50", "<", 6.40],
  ["O=C(C[C@H]1CCCN(C(=O)Nc2ccccc2)C1)Nc1ccc2cc1CCc1cccc(c1)Nc1ncc(Cl)c(n1)N2 [Example D197, trifluoroacetate]", "pIC50", "=", 8.05],
  ["CC(C)(C)NC(=O)N1CCN(c2cc(-c3cc4cc(c3)Nc3ncc(Cl)c(n3)Nc3cccc(c3)OCC4)ccn2)CC1 [Example D41, bis(trifluoroacetate)]", "pIC50", "=", 9.40]
]}
